meta.source: patent US20150150878A1

# ASSAYED_TARGET: cathepsin L (Homo sapiens)
# Sequence (P07711 114-333): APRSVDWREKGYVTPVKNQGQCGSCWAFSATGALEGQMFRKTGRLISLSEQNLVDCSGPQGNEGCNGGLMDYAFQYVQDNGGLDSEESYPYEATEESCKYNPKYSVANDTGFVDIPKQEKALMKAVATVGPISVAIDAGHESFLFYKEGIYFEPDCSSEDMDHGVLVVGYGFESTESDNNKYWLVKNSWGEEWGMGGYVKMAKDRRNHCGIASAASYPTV
# Type: biochemical
# Design: human cathepsin L purified from human liver (Sigma Aldrich); purchased Sigma Aldrich; host or cells: human liver (tissue-purified)
VALUE_KIND: Inhibition of cleavage of NPY peptide by Cathepsin-L (%)
Numbers only; they are read as %.

compound="Cc1cc(C(=O)Nc2cccnc2)sc1-c1ccccc1 [Compound 7948346]" result=10.2

Exam item: I have this compound here, Cc1cnn(CCCNC(=O)c2cc(-c3cccnc3)nc3ccc(Cl)cc23)c1 [Compound 7923236] , and I need its recorded Inhibition of cleavage of NPY peptide by Cathepsin-L.
Marked response: 5.2

Exam item: I have this compound here, O=c1[nH]c2ccc(S(=O)(=O)Nc3ccc(Cl)c(Cl)c3)cc2o1 [Compound 7914021] , and I need its recorded Inhibition of cleavage of NPY peptide by Cathepsin-L.
Marked response: 13.1
